experimental.system: UniProt Q8VH21
Sequence (Q8VH21 as listed by the source): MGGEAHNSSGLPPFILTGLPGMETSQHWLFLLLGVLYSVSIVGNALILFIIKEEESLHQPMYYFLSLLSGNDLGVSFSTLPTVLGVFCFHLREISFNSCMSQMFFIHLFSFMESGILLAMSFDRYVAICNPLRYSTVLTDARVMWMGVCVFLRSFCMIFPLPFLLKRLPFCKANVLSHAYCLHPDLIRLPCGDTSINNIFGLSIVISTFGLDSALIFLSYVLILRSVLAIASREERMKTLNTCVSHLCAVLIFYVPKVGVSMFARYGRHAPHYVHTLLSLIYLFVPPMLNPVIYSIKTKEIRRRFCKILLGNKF
assay.conditions: stereoisomer not certain
Respond using exactly one of the listed classes: YES = active, NO = inactive

Use the examples below as a reference point.
>  <molecule>
c1ccccc1

>  <experimental.system>
UniProt Q8VH21

>  <category.label>
NO

$$$$
>  <molecule>
CCCC(=O)C(C)=O

>  <experimental.system>
UniProt Q8VH21

>  <category.label>
NO

$$$$
>  <molecule>
O=C(OCc1ccccc1)c1ccccc1O

>  <experimental.system>
UniProt Q8VH21

>  <category.label>
NO

$$$$
>  <molecule>
CCCCCCCCC=CC=O

>  <experimental.system>
UniProt Q8VH21

>  <category.label>
NO

$$$$
>  <molecule>
CC1CC=CCCCCCCCCCC(=O)C1 (stereo unspecified)

>  <experimental.system>
UniProt Q8VH21

>  <category.label>
NO

$$$$
>  <molecule>
CC1(C)CC(=O)CC(=O)C1

>  <experimental.system>
UniProt Q8VH21

>  <category.label>
NO

$$$$
>  <molecule>
CCC(=O)O

>  <experimental.system>
UniProt Q8VH21

>  <category.label>
NO

$$$$
>  <molecule>
CCc1occc(=O)c1O

>  <experimental.system>
UniProt Q8VH21

>  <category.label>
NO

$$$$
>  <molecule>
CC(C)CCN

>  <experimental.system>
UniProt Q8VH21

>  <category.label>
NO

$$$$
>  <molecule>
CCc1nccnc1CC

>  <experimental.system>
UniProt Q8VH21

>  <category.label>
NO

$$$$

Next up:
What did this assay record as the result for C1CCOC1 ?
NO
